# assay_target: Oxoeicosanoid receptor 1 (Homo sapiens, UniProt Q8TDS5)
# Sequence (Q8TDS5 whole entry): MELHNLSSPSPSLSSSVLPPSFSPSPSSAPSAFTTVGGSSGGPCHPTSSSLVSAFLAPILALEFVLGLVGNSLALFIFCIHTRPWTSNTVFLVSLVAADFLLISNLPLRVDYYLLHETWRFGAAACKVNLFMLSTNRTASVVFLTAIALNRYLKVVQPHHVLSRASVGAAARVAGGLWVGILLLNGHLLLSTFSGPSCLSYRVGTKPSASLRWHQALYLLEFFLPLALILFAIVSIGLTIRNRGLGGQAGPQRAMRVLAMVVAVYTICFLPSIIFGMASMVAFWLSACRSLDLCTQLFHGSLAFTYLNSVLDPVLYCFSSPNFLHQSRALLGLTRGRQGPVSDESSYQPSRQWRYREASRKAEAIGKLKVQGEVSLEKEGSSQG
# protocol_description: Agonist activity at OXE receptor in human neutrophils assessed as 5-oxo-ETE-induced Ca2+ mobilization incubated for 2 mins prior to 5-oxo-ETE addition measured after 1 min by spectrofluorimetric analysis
# Format: functional
Active and inactive are the calls of the source. The calls are words filed in the database; no cut-off is given here.

[
  {
    "smiles_input": "O=C(O)CCCc1cc2ccccc2o1",
    "assay_target": "Oxoeicosanoid receptor 1 (Homo sapiens, UniProt Q8TDS5)",
    "Activity": "inactive"
  },
  {
    "smiles_input": "O=C(O)CCCC(=O)n1ccc2ccccc21",
    "assay_target": "Oxoeicosanoid receptor 1 (Homo sapiens, UniProt Q8TDS5)",
    "Activity": "inactive"
  },
  {
    "smiles_input": "O=C(O)CCCC(=O)/C=C/c1cccc2ccccc12",
    "assay_target": "Oxoeicosanoid receptor 1 (Homo sapiens, UniProt Q8TDS5)",
    "Activity": "inactive"
  },
  {
    "smiles_input": "O=C(O)CCCC(=O)/C=C/c1ccccc1",
    "assay_target": "Oxoeicosanoid receptor 1 (Homo sapiens, UniProt Q8TDS5)",
    "Activity": "inactive"
  }
]

====

# assay_target: Oxoeicosanoid receptor 1 (Homo sapiens, UniProt Q8TDS5)
# protocol_description: Antagonist activity at OXE receptor in human neutrophils assessed as 5-oxo-ETE-induced Ca2+ mobilization incubated for 2 mins prior to 5-oxo-ETE addition measured after 1 min by spectrofluorimetric analysis
measurement_label: IC50 (µM)

Reference set (3 entries):
[
  {
    "smiles_input": "CCCCCCc1ccc2ccn(C(=O)CCCC(=O)O)c2c1",
    "assay_target": "Oxoeicosanoid receptor 1 (Homo sapiens, UniProt Q8TDS5)",
    "IC50, µM": 18
  },
  {
    "smiles_input": "CCCCCCc1ccc2c(ccn2C(=O)CCCC(=O)O)c1",
    "assay_target": "Oxoeicosanoid receptor 1 (Homo sapiens, UniProt Q8TDS5)",
    "IC50, µM": 17.7
  },
  {
    "smiles_input": "CCCCCCc1cn(C(=O)CCCC(=O)O)c2ccccc12",
    "assay_target": "Oxoeicosanoid receptor 1 (Homo sapiens, UniProt Q8TDS5)",
    "IC50, µM": 20.7
  }
]

(I) CCCCCCc1cccc2ccn(C(=O)CCCC(=O)O)c12
(II) CCCCCCc1cc2ccccc2n1C(=O)CCCC(=O)O
Q. Between item I and item II , which reported IC50 is smaller? Answer by quoting the chosen item's label.
A. II
